assay: Luminescence activity assay of purified Gaussia luciferase mutants on coelenterazine derivative ZS2; assay type: biochemical; parameters: key: ratio of mutant luminescence intensity to wild-type Gaussia luciferase; conditions: Substrate ZS2 (Table 16)
Parameter: Activity of mutant relative to wild-type Gaussia luciferase without the signal peptide. Scope: all listed entries.
Format: numeric value only, no unit, no commentary.

1. F26L N27D V29D A30G S33N A36I T37D L40R: Gaussia luciferase mutant (protein, SIGNAL (1)..(17), Gaussia luciferase mutant) MGVKVLFALICIAVAEAKPTENNEDLDIDGVANNFIDTDRDADRGKLPGKKLPLEVLKEMEANARKAGCTRGCLICLSHIKCTPKMKKFIPGRCHTYEGDKESAQGGIGEAIVDIPEIPGFKDLEPMEQFIAQVDLCVDCTTGCLKGLANVQCSDLLKKWLPQRCATFASKIQGQVDKIKGAGGD : 1.989
2. F26L V29A V31I A32D S33R A36N T37E LA0P: Gaussia luciferase mutant (protein) MGVKVLFALICIAVAEAKPTENNEDLNIAAIDRNFNETDLDADRGKLPGKKLPLEVLKEMEANARKAGCTRGCLICLSHIKCTPKMKKFIPGRCHTYEGDKESAQGGIGEAIVDIPEIPGFKDLEPMEQFIAQVDLCVDCTTGCLKGLANVQCSDLLKKWLPQRCATFASKIQGQVDKIKGAGGD : 0.385
3. F26R N27Y V29E A30G A32D S33R A36G T37M L40P: Gaussia luciferase mutant (protein, SIGNAL (1)..(17), Gaussia luciferase mutant) MGVKVLFALICIAVAEAKPTENNEDRYIEGVDRNFGMTDPDADRGKLPGKKLPLEVLKEMEANARKAGCTRGCLICLSHIKCTPKMKKFIPGRCHTYEGDKESAQGGIGEAIVDIPEIPGFKDLEPMEQFIAQVDLCVDCTTGCLKGLANVQCSDLLKKWLPQRCATFASKIQGQVDKIKGAGGD : 0.147
4. F26G N27Y A30G V31L A32G S33L A36Y T37V L40E: Gaussia luciferase mutant (protein, SIGNAL (1)..(17), Gaussia luciferase mutant) MGVKVLFALICIAVAEAKPTENNEDGYIVGLGLNFYVTDEDADRGKLPGKKLPLEVLKEMEANARKAGCTRGCLICLSHIKCTPKMKKFIPGRCHTYEGDKESAQGGIGEAIVDIPEIPGFKDLEPMEQFIAQVDLCVDCTTGCLKGLANVQCSDLLKKWLPQRCATFASKIQGQVDKIKGAGGD : 0.027

Ask: Fill blank: measured Activity of mutant relative to wild-type Gaussia luciferase without the signal peptide of the molecule Q152K Q163S T167G S170V G174K Q175E K180: Gaussia luciferase mutant (protein) MGVKVLFALICIAVAEAKPTENNEDFNIVAVASNFATTDLDADRGKLPGKKLPLEVLKEMEANARKAGCTRGCLICLSHIKCTPKMKKFIPGRCHTYEGDKESAQGGIGEAIVDIPEIPGFKDLEPMEQFIAQVDLCVDCTTGCLKGLANVKCSDLLKKWLPSRCAGFAVKIQKEVDKIKGAGGD is ____.
Reply: 0.136
